Test system: DU-145
Test: NCI tumour cell line growth inhibition, 48 h
Active and inactive are the calls of the source. No stated cut-off is given here; in the data, active = GI50 up to about 1.1 µM and inactive = higher.
Respond only with the outcome that fits, drawn from active, inactive

Example entries and their recorded answers appear below.
CN1CCCC(C(=O)OCC(=O)C2(O)CCC3C4CCC5=CC(=O)CCC5(C)C4C(O)CC32C)C1 (stereo not given)    inactive
C=C1C(=O)O[C@@H]2/C=C(C)/C=C\[C@@H]3O[C@@]3(C)C[C@@H](O)C12 (stereo not given in full)    inactive
Cc1c(Cl)nc(Cl)nc1Cl    inactive
CC(=O)OCC1OC(n2c3c(cc(C#N)c2=S)CCCCCC3)C(OC(C)=O)C(OC(C)=O)C1OC(C)=O (stereo not given)    inactive
COC(=O)C1C2CCCN2OC1(C)CO (stereo not given)    inactive
CC12CC(c3ccccc3O1)C(C(=O)Nc1nccs1)C(=O)N2 (stereo not given)    inactive
Cc1cccc2c(N)c3cccc(C(=O)NCC[N+](C)(C)Cc4ccccc4[N+](=O)[O-])c3nc12    inactive
COC(=O)c1c[nH]c2c1-c1cc(C(=O)OCc3ccccc3)n(S(=O)(=O)c3ccc(C)cc3)c1C(=O)C2=O    active

q: Record request — test call for "CC(=O)c1sc2c(c1OC(=O)c1ccc(Cl)cc1Cl)c(=O)n(-c1ccccc1)c(=S)n2-c1ccccc1"
a: inactive

q: Record request — test call for CC1(c2nc3ccccc3[nH]2)CCC(C(N)=O)C(C)(C)O1 (stereo not given)
a: inactive
